system: FGFR3c; test: Inhibition of FGF18-stimulated DNA synthesis (cell growth) in FGFR3c/BaF3 cells by FGF18 partial peptides; assay type: cell-based, mouse; settings: test sample 1 μg/ml, 30 ng/ml FGF18, FIG. 3A
measured endpoint: inhibition of the activity of FGF18 on FGFR3c/BaF3 cells

d37: partial peptide of mouse FGF18, 37 amino acids deleted from N-terminus; SEQ ID NO: 20 (protein, truncation mutant polypeptide of mouse FGF18(d37)) MKHIQVLGRRISARGEDGDKYAQLLVETDTFGSQVRIKGKETEFYLCMNRKGKLVGKPDGTSKECVFIEKVLENNYTALMSAKYSGWYVGFTKKGRPRKGPKTRENQQDVHFMKRYPKGQAELQKPFKYTTVTKRSRRIRPTHPG
strongly inhibit
d77: partial peptide of mouse FGF18, 77 amino acids deleted from N-terminus; SEQ ID NO: 23 (protein, truncation mutant polypeptide of mouse FGF18(d77)) MTEFYLCMNRKGKLVGKPDGTSKECVFIEKVLENNYTALMSAKYSGWYVGFTKKGRPRKGPKTRENQQDVHFMKRYPKGQAELQKPFKYTTVTKRSRRIRPTHPG
strongly inhibit
d48: partial peptide of mouse FGF18, 48 amino acids deleted from N-terminus; SEQ ID NO: 21 (protein, truncation mutant polypeptide of mouse FGF18(d48)) MARGEDGDKYAQLLVETDTFGSQVRIKGKETEFYLCMNRKGKLVGKPDGTSKECVFIEKVLENNYTALMSAKYSGWYVGFTKKGRPRKGPKTRENQQDVHFMKRYPKGQAELQKPFKYTTVTKRSRRIRPTHPG
strongly inhibit
